These measurements were taken from BigSolDB 2.1.

settings: in 1,4-dioxane, 288.15 K
MEASURED_ATTRIBUTE: solubility (mole fraction)
Output spec: single numeric token, no unit.

Entry "CN1COCN(Cc2cnc(Cl)s2)C1=N[N+](=O)[O-]" — recorded solubility (mole fraction) = 0.00255

---

conditions: in DMSO, 298.15 K
MEASURED_ATTRIBUTE: solubility (mole fraction)

Entry "CN1COCN(Cc2cnc(Cl)s2)C1=N[N+](=O)[O-]" — recorded solubility (mole fraction) = 0.0902

---

details: in 2-methoxyethanol, 278.15 K
MEASURED_ATTRIBUTE: solubility (mole fraction)
Output spec: single numeric token, no unit.

Entry "CN1COCN(Cc2cnc(Cl)s2)C1=N[N+](=O)[O-]" — recorded solubility (mole fraction) = 0.00727

---

conditions: in acetic acid, 303.15 K
MEASURED_ATTRIBUTE: solubility (mole fraction)
Output spec: single numeric token, no unit.

Entry "CN1COCN(Cc2cnc(Cl)s2)C1=N[N+](=O)[O-]" — recorded solubility (mole fraction) = 0.0227

---

settings: in acetonitrile, 303.15 K
MEASURED_ATTRIBUTE: solubility (mole fraction)

Entry "CN1COCN(Cc2cnc(Cl)s2)C1=N[N+](=O)[O-]" — recorded solubility (mole fraction) = 0.0183

---

details: in DMAc, 303.15 K
MEASURED_ATTRIBUTE: solubility (mole fraction)
Output spec: single numeric token, no unit.

Entry "CN1COCN(Cc2cnc(Cl)s2)C1=N[N+](=O)[O-]" — recorded solubility (mole fraction) = 0.108

---

conditions: in methanol, 293.15 K
MEASURED_ATTRIBUTE: solubility (mole fraction)
Output spec: single numeric token, no unit.

Entry "CN1COCN(Cc2cnc(Cl)s2)C1=N[N+](=O)[O-]" — recorded solubility (mole fraction) = 0.00141

---

details: in DMAc, 288.15 K
MEASURED_ATTRIBUTE: solubility (mole fraction)
Output spec: single numeric token, no unit.

Entry "CN1COCN(Cc2cnc(Cl)s2)C1=N[N+](=O)[O-]" — recorded solubility (mole fraction) = 0.0817

---

settings: in methanol, 288.15 K
MEASURED_ATTRIBUTE: solubility (mole fraction)
Output spec: single numeric token, no unit.

Entry "CN1COCN(Cc2cnc(Cl)s2)C1=N[N+](=O)[O-]" — recorded solubility (mole fraction) = 0.00111

---

settings: in acetic acid, 298.15 K
MEASURED_ATTRIBUTE: solubility (mole fraction)
Output spec: single numeric token, no unit.

Entry "CN1COCN(Cc2cnc(Cl)s2)C1=N[N+](=O)[O-]" — recorded solubility (mole fraction) = 0.0172

---

details: in DMAc, 283.15 K
MEASURED_ATTRIBUTE: solubility (mole fraction)

Entry "CN1COCN(Cc2cnc(Cl)s2)C1=N[N+](=O)[O-]" — recorded solubility (mole fraction) = 0.074

---

conditions: in 2-methoxyethanol, 313.15 K
MEASURED_ATTRIBUTE: solubility (mole fraction)
Output spec: single numeric token, no unit.

Entry "CN1COCN(Cc2cnc(Cl)s2)C1=N[N+](=O)[O-]" — recorded solubility (mole fraction) = 0.026

---

conditions: in acetic acid, 293.15 K
MEASURED_ATTRIBUTE: solubility (mole fraction)

Entry "CN1COCN(Cc2cnc(Cl)s2)C1=N[N+](=O)[O-]" — recorded solubility (mole fraction) = 0.013

---

conditions: in 1,4-dioxane, 318.15 K
MEASURED_ATTRIBUTE: solubility (mole fraction)
Output spec: single numeric token, no unit.

Entry "CN1COCN(Cc2cnc(Cl)s2)C1=N[N+](=O)[O-]" — recorded solubility (mole fraction) = 0.00985

---

conditions: in 2-methoxyethanol, 283.15 K
MEASURED_ATTRIBUTE: solubility (mole fraction)
Output spec: single numeric token, no unit.

Entry "CN1COCN(Cc2cnc(Cl)s2)C1=N[N+](=O)[O-]" — recorded solubility (mole fraction) = 0.00895

---

settings: in DMAc, 298.15 K
MEASURED_ATTRIBUTE: solubility (mole fraction)
Output spec: single numeric token, no unit.

Entry "CN1COCN(Cc2cnc(Cl)s2)C1=N[N+](=O)[O-]" — recorded solubility (mole fraction) = 0.0988

---

conditions: in acetonitrile, 288.15 K
MEASURED_ATTRIBUTE: solubility (mole fraction)
Output spec: single numeric token, no unit.

Entry "CN1COCN(Cc2cnc(Cl)s2)C1=N[N+](=O)[O-]" — recorded solubility (mole fraction) = 0.0105

---

conditions: in propionic acid, 288.15 K
MEASURED_ATTRIBUTE: solubility (mole fraction)
Output spec: single numeric token, no unit.

Entry "CN1COCN(Cc2cnc(Cl)s2)C1=N[N+](=O)[O-]" — recorded solubility (mole fraction) = 0.00147

---

conditions: in DMSO, 323.15 K
MEASURED_ATTRIBUTE: solubility (mole fraction)
Output spec: single numeric token, no unit.

Entry "CN1COCN(Cc2cnc(Cl)s2)C1=N[N+](=O)[O-]" — recorded solubility (mole fraction) = 0.172

---

settings: in DMAc, 323.15 K
MEASURED_ATTRIBUTE: solubility (mole fraction)

Entry "CN1COCN(Cc2cnc(Cl)s2)C1=N[N+](=O)[O-]" — recorded solubility (mole fraction) = 0.157

---

settings: in 1,4-dioxane, 303.15 K
MEASURED_ATTRIBUTE: solubility (mole fraction)

Entry "CN1COCN(Cc2cnc(Cl)s2)C1=N[N+](=O)[O-]" — recorded solubility (mole fraction) = 0.00523

---

conditions: in 2-methoxyethanol, 308.15 K
MEASURED_ATTRIBUTE: solubility (mole fraction)
Output spec: single numeric token, no unit.

Entry "CN1COCN(Cc2cnc(Cl)s2)C1=N[N+](=O)[O-]" — recorded solubility (mole fraction) = 0.0218

---

details: in 2-ethoxyethanol, 288.15 K
MEASURED_ATTRIBUTE: solubility (mole fraction)

Entry "CN1COCN(Cc2cnc(Cl)s2)C1=N[N+](=O)[O-]" — recorded solubility (mole fraction) = 0.00523

---

conditions: in DMSO, 303.15 K
MEASURED_ATTRIBUTE: solubility (mole fraction)
Output spec: single numeric token, no unit.

Entry "CN1COCN(Cc2cnc(Cl)s2)C1=N[N+](=O)[O-]" — recorded solubility (mole fraction) = 0.103

---

settings: in acetic acid, 308.15 K
MEASURED_ATTRIBUTE: solubility (mole fraction)
Output spec: single numeric token, no unit.

Entry "CN1COCN(Cc2cnc(Cl)s2)C1=N[N+](=O)[O-]" — recorded solubility (mole fraction) = 0.0292

---

details: in propionic acid, 293.15 K
MEASURED_ATTRIBUTE: solubility (mole fraction)
Output spec: single numeric token, no unit.

Entry "CN1COCN(Cc2cnc(Cl)s2)C1=N[N+](=O)[O-]" — recorded solubility (mole fraction) = 0.00185

---

conditions: in 2-ethoxyethanol, 313.15 K
MEASURED_ATTRIBUTE: solubility (mole fraction)
Output spec: single numeric token, no unit.

Entry "CN1COCN(Cc2cnc(Cl)s2)C1=N[N+](=O)[O-]" — recorded solubility (mole fraction) = 0.0117

---

settings: in propionic acid, 313.15 K
MEASURED_ATTRIBUTE: solubility (mole fraction)
Output spec: single numeric token, no unit.

Entry "CN1COCN(Cc2cnc(Cl)s2)C1=N[N+](=O)[O-]" — recorded solubility (mole fraction) = 0.00562

---

conditions: in propionic acid, 308.15 K
MEASURED_ATTRIBUTE: solubility (mole fraction)
Output spec: single numeric token, no unit.

Entry "CN1COCN(Cc2cnc(Cl)s2)C1=N[N+](=O)[O-]" — recorded solubility (mole fraction) = 0.00406

---

settings: in 1,4-dioxane, 308.15 K
MEASURED_ATTRIBUTE: solubility (mole fraction)

Entry "CN1COCN(Cc2cnc(Cl)s2)C1=N[N+](=O)[O-]" — recorded solubility (mole fraction) = 0.00637

---

conditions: in 1,4-dioxane, 313.15 K
MEASURED_ATTRIBUTE: solubility (mole fraction)
Output spec: single numeric token, no unit.

Entry "CN1COCN(Cc2cnc(Cl)s2)C1=N[N+](=O)[O-]" — recorded solubility (mole fraction) = 0.00792

---

conditions: in 2-methoxyethanol, 298.15 K
MEASURED_ATTRIBUTE: solubility (mole fraction)
Output spec: single numeric token, no unit.

Entry "CN1COCN(Cc2cnc(Cl)s2)C1=N[N+](=O)[O-]" — recorded solubility (mole fraction) = 0.0152

---

details: in methanol, 283.15 K
MEASURED_ATTRIBUTE: solubility (mole fraction)
Output spec: single numeric token, no unit.

Entry "CN1COCN(Cc2cnc(Cl)s2)C1=N[N+](=O)[O-]" — recorded solubility (mole fraction) = 0.000817

---

details: in DMAc, 308.15 K
MEASURED_ATTRIBUTE: solubility (mole fraction)

Entry "CN1COCN(Cc2cnc(Cl)s2)C1=N[N+](=O)[O-]" — recorded solubility (mole fraction) = 0.12

---

conditions: in propionic acid, 298.15 K
MEASURED_ATTRIBUTE: solubility (mole fraction)
Output spec: single numeric token, no unit.

Entry "CN1COCN(Cc2cnc(Cl)s2)C1=N[N+](=O)[O-]" — recorded solubility (mole fraction) = 0.00252
